target: CXCR4 (Homo sapiens); construct: endogenous in cells; test: In vitro binding assay: blocking of CXCR4-targeted TN14003 conjugate on MDA-MB-231 cells; conditions: fitted with GraphPad Prism 5, read-out: affinity IC50
Measured Attribute: IC50 (nM)
One number for each entry, in nM.

Quick one: IC50 of N=C(N)NCCCC(N)C(=O)NC1CCN(C(=O)CCn2ccc3ccncc32)CC1 (stereo not shown) [Z7R] ?
1.25

---

biological target: CXCR4 (Homo sapiens, UniProt P61073); construct: endogenous in cells; test: In vitro binding assay: blocking of CXCR4-targeted TN14003 conjugate on MDA-MB-231 cells; settings: compounds tested at 1, 10, 100 and 1000 nM, read-out: binding affinity (EC, effective concentration: concentration at which the compound blocks more than 50% of rhodamine Red X-TN14003)
Sequence (P61073 whole entry): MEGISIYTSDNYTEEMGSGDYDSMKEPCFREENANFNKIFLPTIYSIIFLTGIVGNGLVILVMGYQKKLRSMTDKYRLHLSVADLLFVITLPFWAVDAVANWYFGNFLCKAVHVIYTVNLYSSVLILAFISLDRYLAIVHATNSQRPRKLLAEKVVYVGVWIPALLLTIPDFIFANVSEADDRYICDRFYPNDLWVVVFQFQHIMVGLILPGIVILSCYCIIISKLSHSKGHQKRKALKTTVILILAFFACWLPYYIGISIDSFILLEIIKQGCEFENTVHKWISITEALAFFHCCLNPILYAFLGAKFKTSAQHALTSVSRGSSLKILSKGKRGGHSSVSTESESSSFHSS
Measured Attribute: EC50

Quick one: EC50 of NC(C(=O)NC1CCN(C(=O)CCn2ccc3ccncc32)CC1)c1ccccc1 (stereo not shown) ?
100 nM
